# assayed target: T1, DegS F220A/H198P (E. coli, UniProt P0AEE3 27-355, F220A | H198P)
# T1 sequence (looked up): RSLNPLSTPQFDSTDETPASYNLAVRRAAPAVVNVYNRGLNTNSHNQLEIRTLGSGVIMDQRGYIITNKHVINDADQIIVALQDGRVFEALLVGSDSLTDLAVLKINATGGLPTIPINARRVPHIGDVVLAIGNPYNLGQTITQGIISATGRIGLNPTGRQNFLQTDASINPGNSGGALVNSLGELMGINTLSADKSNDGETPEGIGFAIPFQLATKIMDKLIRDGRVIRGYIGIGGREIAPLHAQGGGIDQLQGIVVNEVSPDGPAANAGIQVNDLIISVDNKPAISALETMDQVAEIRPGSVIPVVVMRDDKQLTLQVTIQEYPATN
# assay method text: fluorescence polarisation
Where no end group is shown, it is not given here. fluorescein = fluorescein, a fluorescent label on the peptide N-terminus
readout label: Kd (nM)
Field: numeric (nM). Do not append units.

What value of Kd has been reported for the following binder? fluorescein-DNRDGNVYYF [fluorescent OMP peptide fluorescein-DNRDGNVYYF]
1600
